Tested on: HOP-92

molecule	GI50 (µM)
O=C(CNC(=O)c1cccc2ccccc12)Nc1ccccc1Oc1ccc(O)cc1 [PCNA1]	25.1
COc1cccc(Oc2ccccc2NC(=O)CNC(=O)c2cccc3ccccc23)c1 [PCNA7/ AOH1996]	0.204
O=C(CNC(=O)c1cccc2ccccc12)Nc1ccccc1Oc1cccc(O)c1 [PCNA2]	25.1
O=C(CNC(=O)c1cccc2ccccc12)Nc1ccccc1Oc1ccccc1 [AOH1160]	2.24
COc1ccc(Oc2ccccc2NC(=O)CNC(=O)c2cccc3ccccc23)cc1 [PCNA6]	25.1

====

What follows is a record of log10(GI50) for SK-OV-3.
measured_endpoint: log10(GI50) (log10 of the value in µM)

sample_smiles	measured_endpoint	recorded_number
O=C(CNC(=O)c1cccc2ccccc12)Nc1ccccc1Oc1ccccc1	log10(GI50)	-0.40
O=C(CNC(=O)c1cccc2ccccc12)Nc1ccccc1Oc1cccc(O)c1	log10(GI50)	1.11
O=C(CNC(=O)c1cccc2ccccc12)Nc1ccccc1Oc1ccc(O)cc1	log10(GI50)	0.20
COc1ccc(Oc2ccccc2NC(=O)CNC(=O)c2cccc3ccccc23)cc1	log10(GI50)	0.01
COc1cccc(Oc2ccccc2NC(=O)CNC(=O)c2cccc3ccccc23)c1	log10(GI50)	-0.31
